- TGT: T1, human 4-1BB (h4-1BB) on transiently transfected CHO cells (human, UniProt Q07011 24-255)
- T1 construct: also called TNFRSF9; CD137
- TEST SUMMARY: flow cytometry, CHO cells transfected with human 4-1BB, antibody at 1 µg/ml
Kindly state percentage of cells with FITC signal for each of the entries shown.
State the answer as a number, implicitly in %.

// query Please give the documented percentage of cells with FITC signal of 70-3F9 (antibody, V domains shown, mouse antibody purified from ascites) VH: QVQLQQPGAELVRPGASVKLSCKASGYTFTSYWINWVKQRPGQGLEWIGNIFPSDSYTNYNQKFKDRAKLTVDKSSSTAYMQLSSPTSEDSAVYYCTRFGSSGYPDYYTMEYWGQGTSVTVSS VL: DIQMTQSPASLSASVGETVTITCRASGNIDNYLAWYQQKQGKSPQLLVYNAKTLAEGVPSRFSGSGSGTEYSLKINSLQPEDFGSYHCQQYWTIPYTFGGGTKLEIK
// result 56.4

// query Identify measured percentage of cells with FITC signal corresponding to 45-7G9 (antibody, V domains shown, mouse antibody purified from ascites) VH: QVQLQQPGSALVRPGASVKLSCKASGYTFSNYWIHWVKQRHGQGLEWIGNIYPASDYTNYDEKFKNKGTLTVDTSSSTAYMHLSSLTSEDSAVYYCSRGYFGSLDYWGQGTSVTVSA VL: DILLTQSPAILSVNPGERVSFSCRASQPIGTGIHWYQQRTNGSPRLLIKSASESISGIPSRFSGSGSGTDFTLTINNVESDDVGDYYCQQSYSWPTTFGGGTKLKIN
// result 55.1

// query Provide one value: measured percentage of cells with FITC signal of 45-8F1 (antibody, V domains shown, mouse antibody purified from ascites) VH: EVQLQQSGTVLARPGASVKMSCKASGYSFTSYWMHWVKQRPGQGLEWIGVIYPGNSDTSYNQKFKGKAKLTAVTSASTAYMDLSSLTNEDSAVYYCTRGITTAPDYWGQGTTLTVSS VL: NIVMTQSPKSMSMSVGERVTLSCKASENVGIHVSWYQQKPEQSPKLLIYGASSGYNGVPDRFTGSGSATDFTLTISSVQPEDLADYHCGQTYSYPFTFGSGTKLEIK
// result 56.1
